# test target: human Edg-1 receptor (Homo sapiens)
# Construct: FLAG (N); expressed in transfected cells; membrane preparation
# Sequence (P21453 whole entry): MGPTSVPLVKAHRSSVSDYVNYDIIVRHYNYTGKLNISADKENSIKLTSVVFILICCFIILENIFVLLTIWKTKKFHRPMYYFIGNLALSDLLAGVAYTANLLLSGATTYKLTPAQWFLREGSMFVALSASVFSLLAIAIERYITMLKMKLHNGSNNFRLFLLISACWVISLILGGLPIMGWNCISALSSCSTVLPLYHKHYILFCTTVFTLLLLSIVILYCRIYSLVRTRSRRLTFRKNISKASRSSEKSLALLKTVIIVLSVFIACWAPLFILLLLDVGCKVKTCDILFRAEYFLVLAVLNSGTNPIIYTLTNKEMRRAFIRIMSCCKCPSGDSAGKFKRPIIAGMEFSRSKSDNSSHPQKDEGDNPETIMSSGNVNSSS
# assay procedure: GTP-γ-S assay using human Edg-1 receptors (SPA, CHO Flp-In cell membrane preparation)
# Assay type: biochemical
# protocol conditions: test compound at 10 μM; high control 10 μM S1P regarded as 100% activation; background-corrected; triplicate; read-out: % Activation (Edg-1 receptor activation in percent of the activation by 10 μM S1P)

[
  {
    "compound": "CCCOc1nc(Oc2ccccc2F)nc2oc(-c3cc(C)c(OC)c(C)c3)nc12 [Example 5]",
    "activation at 10 µM, %": 111
  },
  {
    "compound": "CCCOc1nc(Oc2ccc(OC)c(OC)c2)nc2oc(-c3cccc(C)c3)nc12 [Example 136]",
    "activation at 10 µM, %": 91
  },
  {
    "compound": "CCCOc1nc(Oc2cc(Cl)ccc2C)nc2oc(-c3cccc(F)c3)nc12 [Example 67]",
    "activation at 10 µM, %": 84
  },
  {
    "compound": "Cc1cc(Oc2nc(OCC3CC3)c3nc(-c4cccc(F)c4)oc3n2)n(C)n1 [Example 102]",
    "activation at 10 µM, %": 130
  },
  {
    "compound": "CCCOc1nc(Oc2ccccc2)nc2oc(-c3cccc(C)c3)nc12 [Example 51]",
    "activation at 10 µM, %": 110
  }
]
